- ASSAYED SYSTEM: human GR (Homo sapiens, UniProt P04150)
- TEST NAME: Trans-Activation Modulation of Glucocorticoid Receptor (GRAMMER), MMTV-LUC reporter, agonist mode
- Type: cell-based
- Set-up: endogenous in cells
- EXPERIMENTAL PARAMETERS: A549, A549 cells; maximum activity; read-out: Transactivation A549 Cells GRAMMER Emax
MEASURED ENDPOINT: Emax (%)
The answer is to be given in %; state only the numeric part.

Recorded results for 3 molecules are shown here.
molecule=C[C@]12Cc3cnn(-c4ccc(F)cc4)c3C=C1CC[C@@H]2CN(CC#N)S(=O)(=O)c1ccccc1C(F)(F)F reported=8.2
molecule="C[C@]12Cc3cnn(-c4ccc(F)cc4)c3C=C1CC[C@@H]2CN(CC(O)C(F)(F)F)S(=O)(=O)Cc1cccnc1 (stereo partly shown)" reported=32.4
molecule=C[C@]12Cc3cnn(-c4ccc(F)cc4)c3C=C1CC[C@@H]2CN(CC1(O)CCCCC1)S(=O)(=O)c1ccccc1F reported=47.8

Switching to the query record.
Which Emax value is on record for `COCCN(C[C@H]1CCC2=Cc3c(cnn3-c3ccc(F)cc3)C[C@@]21C)S(=O)(=O)c1c(C)noc1C` ? 70.4

* * *

- ASSAYED SYSTEM: glucocorticoid receptor (Homo sapiens, UniProt P04150)
- Construct: endogenous in cells
- TEST NAME: Ligand binding assay (GR BIND)
MEASURED ENDPOINT: pKi
Just the number, please; pKi means minus log10 of the concentration in mol/L.

Query (compound): `Cc1ccccc1S(=O)(=O)N(CC#N)C[C@H]1CCC2=Cc3c(cnn3-c3ccc(F)cc3)C[C@@]21C` ; field requested: pKi 8.74

Request the reported pKi associated with `C[C@]12Cc3cnn(-c4ccccc4)c3C=C1CC[C@@H]2CN(CCc1ccccc1F)S(=O)(=O)CC(F)(F)F` 9.05

Any idea what pKi was measured for `C[C@]12Cc3cnn(-c4ccc(F)cc4)c3C=C1CC[C@@H]2CN(CCc1ccccn1)S(=O)(=O)Cc1ccncc1` ? 8.80

I have this compound here, `Cc1ccc(S(=O)(=O)N(CC#N)C[C@H]2CCC3=Cc4c(cnn4-c4ccc(F)cc4)C[C@@]32C)s1` , and I need its recorded pKi. 8.21

Recorded pKi for `COc1cccc(CCN(C[C@H]2CCC3=Cc4c(cnn4-c4ccc(F)cc4)C[C@@]32C)S(=O)(=O)CC(F)(F)F)c1` , please? 9.05

Fill in the blank: the reported pKi of `C[C@]12Cc3cnn(-c4ccc(F)cc4)c3C=C1CC[C@@H]2CN(CCc1ccccc1F)S(=O)(=O)c1ccccc1C(F)(F)F` is ____. 8.85

* * *

- ASSAYED SYSTEM: glucocorticoid receptor (Homo sapiens, UniProt P04150)
- Construct: endogenous in cells
- Sequence (P04150 1-777): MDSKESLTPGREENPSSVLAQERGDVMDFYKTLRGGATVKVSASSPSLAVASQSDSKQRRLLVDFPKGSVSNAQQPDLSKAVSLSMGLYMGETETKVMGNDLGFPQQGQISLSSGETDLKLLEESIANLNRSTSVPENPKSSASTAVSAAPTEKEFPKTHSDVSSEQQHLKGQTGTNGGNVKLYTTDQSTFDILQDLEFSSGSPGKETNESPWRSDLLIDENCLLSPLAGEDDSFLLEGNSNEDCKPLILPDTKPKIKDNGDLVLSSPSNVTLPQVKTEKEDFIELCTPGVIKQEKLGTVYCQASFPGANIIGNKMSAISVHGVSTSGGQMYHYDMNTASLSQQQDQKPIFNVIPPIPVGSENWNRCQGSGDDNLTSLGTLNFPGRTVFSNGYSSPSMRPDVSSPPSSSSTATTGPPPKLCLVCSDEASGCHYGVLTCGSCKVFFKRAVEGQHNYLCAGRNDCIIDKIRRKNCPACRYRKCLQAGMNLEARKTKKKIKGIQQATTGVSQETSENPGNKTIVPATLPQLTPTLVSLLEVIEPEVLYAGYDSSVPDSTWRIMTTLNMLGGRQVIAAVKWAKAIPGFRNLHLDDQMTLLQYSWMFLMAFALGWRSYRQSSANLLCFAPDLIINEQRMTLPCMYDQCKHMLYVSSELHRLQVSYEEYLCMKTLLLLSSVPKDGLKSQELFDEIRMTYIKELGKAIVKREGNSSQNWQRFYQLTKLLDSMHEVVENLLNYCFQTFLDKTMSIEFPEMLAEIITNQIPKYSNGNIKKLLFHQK
- TEST NAME: Ligand binding assay (GR BIND)
MEASURED ENDPOINT: Ki

compound="C[C@]12Cc3cnn(-c4ccc(F)cc4)c3C=C1CC[C@@H]2CN(CCc1ccccc1F)S(=O)(=O)c1ccccc1Cl [Example 100]" reported="2.1 nM"
compound="C[C@]12Cc3cnn(-c4ccc(F)cc4)c3C=C1CC[C@@H]2CN(CC(OS(=O)(=O)CC(F)(F)F)C(F)F)S(=O)(=O)CC(F)(F)F (stereo partly shown) [Example 134]" reported="1.8 nM"
compound="COC(=O)c1ccccc1CS(=O)(=O)N(C[C@H]1CCC2=Cc3c(cnn3-c3ccc(F)cc3)C[C@@]21C)C[C@@H](C)O [Example 180]" reported="1.8 nM"

Okay, next one:
What measured Ki goes with C[C@]12Cc3cnn(-c4ccc(F)cc4)c3C=C1CC[C@@H]2CN(CCc1ccc(O)cc1)S(=O)(=O)CC(F)(F)F [Example 130] ? 1.8 nM
